- subject_of_test: mushroom tyrosinase
- assay_explanation: spectrophotometric dopachrome assay (L-DOPA substrate, […] nm)
readout_name: IC50
Give your result as the value with the unit written after it.

State, for mushroom tyrosinase, measured IC50 of the compound listed here: C=C1C(=O)OC2C=C(C)CC3C=C(CCC=C(C)CCC12)C(=O)O3 (stereo not shown) [ovatodiolide]
253 µM
